target_under_test: full length human recombinant glucocorticoid receptor (Homo sapiens, UniProt P04150)
Construct: partially purified full length human recombinant glucocorticoid receptor; purchased Panvera/Invitrogen PV4302
Sequence (P04150 1-777): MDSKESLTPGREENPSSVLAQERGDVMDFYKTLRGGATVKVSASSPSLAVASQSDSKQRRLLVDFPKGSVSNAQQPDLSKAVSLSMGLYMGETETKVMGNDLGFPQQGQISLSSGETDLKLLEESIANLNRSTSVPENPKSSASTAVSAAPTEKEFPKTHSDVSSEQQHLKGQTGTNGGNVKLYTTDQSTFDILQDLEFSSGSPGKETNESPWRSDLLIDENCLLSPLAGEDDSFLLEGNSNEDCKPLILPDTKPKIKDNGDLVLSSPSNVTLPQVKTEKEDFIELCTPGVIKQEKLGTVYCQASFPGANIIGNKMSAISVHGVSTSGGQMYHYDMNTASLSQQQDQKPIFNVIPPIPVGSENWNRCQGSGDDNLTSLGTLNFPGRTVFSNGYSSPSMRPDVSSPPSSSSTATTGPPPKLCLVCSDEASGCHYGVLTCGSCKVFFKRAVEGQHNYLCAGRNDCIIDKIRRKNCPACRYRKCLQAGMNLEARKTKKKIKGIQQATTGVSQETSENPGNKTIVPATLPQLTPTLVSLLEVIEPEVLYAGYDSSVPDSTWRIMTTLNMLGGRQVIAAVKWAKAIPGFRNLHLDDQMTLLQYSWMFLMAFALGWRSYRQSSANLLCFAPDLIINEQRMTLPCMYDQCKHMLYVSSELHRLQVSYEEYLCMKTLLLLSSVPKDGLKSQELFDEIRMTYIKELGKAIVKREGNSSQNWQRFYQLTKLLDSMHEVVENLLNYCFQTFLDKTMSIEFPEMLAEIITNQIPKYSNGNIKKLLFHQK
experiment_description: Glucocorticoid Receptor Binding Assay (fluorescence polarization competitor assay, Fluormone GS Far Red tracer)
readout_kind: pKi
The read-out pKi is expressed as -log10 of concentration in moles per litre.

1. CCOC(=O)c1ccc(COc2ccc([C@@H](C)[C@@](O)(c3cnc(C)cn3)C(F)(F)F)c(Cl)c2)cc1 (stereo in doubt) [Example 7]; 7.42
2. C[C@H](c1ccc(C(=O)Nc2ccc(CC(=O)O)cc2)cc1Cl)[C@@](O)(c1ccnc(Cl)c1)C(F)(F)F (stereo in doubt); 6.56
3. CC(c1ccc(NC(=O)c2ccc(C(=O)O)cc2)cc1Cl)C(O)(c1ccnc(Cl)c1)C(F)(F)F (stereo not shown); 6.94
4. CC(c1ccc(NC(=O)c2cccc(C(=O)O)c2)cc1Cl)C(O)(c1ccnc(Cl)c1)C(F)(F)F (stereo not shown); 6.50
5. C[C@H](c1ccc(Oc2ccc(C(=O)O)cc2Cl)cc1Cl)[C@@](O)(c1ccc(=O)n(C)c1)C(F)(F)F (relative stereo); 9.15

Lookup result for C[C@H](c1ccc(Oc2cnc(C(=O)O)cn2)c(Cl)c1Cl)[C@@](O)(c1ccc(=O)n(C)c1)C(F)(F)F (stereo in doubt) ; measured pKi: 6.95

Looking up C[C@H](c1ccc(Oc2ccc(C(=O)O)c(Cl)c2)cc1Cl)[C@@](O)(c1ccc(C#N)n1C)C(F)(F)F (stereo in doubt) , I see its pKi listed as 7.84

Hey, just so you know, these numbers are from patent US8138189B2.
